TESTED_TARGET: UniProt Q5NUL3
Sequence (Q5NUL3 whole entry): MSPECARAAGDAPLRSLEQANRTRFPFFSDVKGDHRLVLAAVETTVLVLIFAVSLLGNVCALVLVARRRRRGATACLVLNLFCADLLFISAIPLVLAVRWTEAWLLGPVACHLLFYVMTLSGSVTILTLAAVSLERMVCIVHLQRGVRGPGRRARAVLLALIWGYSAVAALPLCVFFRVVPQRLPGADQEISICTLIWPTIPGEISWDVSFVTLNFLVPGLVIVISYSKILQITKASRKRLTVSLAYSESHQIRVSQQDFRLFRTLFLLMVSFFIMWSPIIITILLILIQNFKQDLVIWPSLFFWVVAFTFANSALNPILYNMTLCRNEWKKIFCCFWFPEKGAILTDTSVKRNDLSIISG
ASSAY_METHOD_TEXT: Ca2+ influx activity of CHO cells expressing human GPR120
pEC50: −log10 of the molar value.
TEST_READOUT: pEC50

> print(dat)
                                   compound  reading
1  Cc1ccc(-c2ccc(F)cc2COc2ccc(CC3SC(=O)NC3=O)cc2F)cc1 (stereo not shown)     6.56
2  Cc1ccc(-c2ccc(F)cc2COc2ccc(CC3SC(=O)NC3=O)c(F)c2F)cc1 (stereo not shown)     6.85
3  Cc1ccc(-c2ccc(F)cc2COc2ccc(CC3SC(=O)NC3=O)cc2)cc1 (stereo not shown)     6.74
4  Cc1ccc(-c2ccc(F)cc2COc2ccc(CC3SC(=O)NC3=O)cc2C)cc1 (stereo not shown)     6.34
5  COc1cc(OCc2cc(F)ccc2-c2ccc(C)cc2)ccc1CC1SC(=O)NC1=O (stereo not shown)     6.91
6  Cc1ccc(-c2ccc(F)cc2COc2ccc(CC3SC(=O)NC3=O)c(C)c2)cc1 (stereo not shown)     6.87
7  Cc1ccc(-c2ccc(F)cc2COc2cc(F)c(CC3SC(=O)NC3=O)c(F)c2)cc1 (stereo not shown)     6.86
